# SYSTEM NAME: HRP Type VIA (Armoracia rusticana, UniProt P00433)
# Sequence (P00433 31-338): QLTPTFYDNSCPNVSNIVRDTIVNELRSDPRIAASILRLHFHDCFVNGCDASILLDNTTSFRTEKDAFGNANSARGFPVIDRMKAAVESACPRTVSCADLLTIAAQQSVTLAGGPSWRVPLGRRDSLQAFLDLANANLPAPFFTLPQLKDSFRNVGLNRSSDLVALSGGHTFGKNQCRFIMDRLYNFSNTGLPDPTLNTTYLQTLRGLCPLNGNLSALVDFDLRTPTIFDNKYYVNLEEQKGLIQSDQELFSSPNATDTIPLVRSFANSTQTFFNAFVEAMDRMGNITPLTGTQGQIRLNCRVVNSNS
# CONDITION PARAMETERS: 0.01 mg/ml, 10µl test compound
MEASURED PARAMETER: (c) Increase in signal: background ratio

OB(O)c1ccc(B(O)O)cc1 N (N = no)
OB(O)c1cccc2c1Sc1ccccc1S2 N (N = no)
OB(O)c1cc(Cl)cc(Cl)c1 N (N = no)

###

# SYSTEM NAME: HRP Type VIA (Armoracia rusticana, UniProt P00433)
# CONDITION PARAMETERS: 0.01 mg/ml, 10µl test compound
MEASURED PARAMETER: (b) Increase in signal (with HRP, with test cpd.)

COMPOUND	SYSTEM NAME	TEST VALUE
OB(O)c1cccc2ccccc12 [Compound 1002, 1-naphthaleneboronic acid]	HRP Type VIA (Armoracia rusticana, UniProt P00433)	N
OB(O)c1ccc(-c2ccc(B(O)O)cc2)cc1 [Compound 1037, 4,4'-bis(phenylboronic acid)]	HRP Type VIA (Armoracia rusticana, UniProt P00433)	Y
CCCCOB(OCCCC)c1ccc(Br)cc1 [Compound 1044, 4-bromophenyl-di-n-butoxyborane]	HRP Type VIA (Armoracia rusticana, UniProt P00433)	Y
OB(O)c1ccc2cc(O)ccc2c1 [Compound 1006, 6-hydroxy-2-naphthaleneboronic acid]	HRP Type VIA (Armoracia rusticana, UniProt P00433)	N

# ---- query compound ----
OB(O)c1ccccc1-c1ccccc1 [Compound 1004, 2-biphenylboronic acid] on HRP Type VIA (Armoracia rusticana, UniProt P00433) gives (b) Increase in signal (with HRP, with test cpd.) = N

src = patent EP0626016B1
